All values here come from paper PMC8159961.

Some compounds, each annotated with its measured %inh 5-HT6 exp_1.
target: human 5-HT6 receptor (Homo sapiens); construct: expressed in transfected cells; test: GPCR radioligand binding assay, [3H]-LSD displacement, HEK293 membranes; settings: 5-HT6; replicate exp_1
Lab book: enter the figure in %, no units written.

Example cases with answers are listed next.
COMPOUND: Cc1nc(-c2ccccc2)cs1 [A7]
METRIC NAME: %inh 5-HT6 exp_1
UNITS OF MEASURE: %
TEST RESULT: 50

COMPOUND: O=C(c1ccccc1)N1CCC(CO)CC1 [H9]
METRIC NAME: %inh 5-HT6 exp_1
UNITS OF MEASURE: %
TEST RESULT: 29

COMPOUND: O=C(O)c1ccc(CN2CCOCC2)cc1 [H1]
METRIC NAME: %inh 5-HT6 exp_1
UNITS OF MEASURE: %
TEST RESULT: 48

COMPOUND: O=C(CN1CCNCC1)c1ccccc1 [E5]
METRIC NAME: %inh 5-HT6 exp_1
UNITS OF MEASURE: %
TEST RESULT: 45

COMPOUND: Clc1ccc2nnnn2n1 [E6]
METRIC NAME: %inh 5-HT6 exp_1
UNITS OF MEASURE: %
TEST RESULT: 38

Report value only: %inh 5-HT6 exp_1, human 5-HT6 receptor (Homo sapiens), O=C(O)c1cccc(Nc2ncccn2)c1 [F5]
58

Report value only: %inh 5-HT6 exp_1, human 5-HT6 receptor (Homo sapiens), O=C1CCC(=O)N(c2ccccc2)N1 [H7]
24

###

molecular target: human thrombin (Homo sapiens); construct: human thrombin; purchased Sigma-Aldrich; assay: Protease inhibitory assay, chromogenic substrate S-2238; format: biochemical; settings: Thrombin; substrate 20 µM; cmpd conc 200 µM; one of two values averaged in Supplementary Data 1; read-out: Ki
Some compounds, each annotated with its measured pKi.
Note on units: pKi is unitless, being -log10 of a concentration expressed in mol/L.

Example cases with answers are listed next.
COMPOUND: NC(=O)N1CCC(C(=O)O)CC1 [SX-D12]
pKi: 3.56

COMPOUND: O=C(O)c1cnc(-c2ccccc2)s1 [SX-F3]
pKi: 3.53

COMPOUND: O=C(O)C1CCN(c2ncccn2)CC1 [SX-E9]
pKi: 4.19

Please supply the value of reported pKi for the item CC(=O)c1sc(-c2ccc(O)cc2)nc1C [SX-E1]
3.60

Please supply the value of reported pKi for the item CC1CCc2sc(C(=O)O)cc2C1 (stereo not shown) [SX-D9]
4.24

Please supply the value of reported pKi for the item c1cnc2cccnc2c1 [SX-A2]
3.80

Please supply the value of reported pKi for the item Nc1nnc(-c2cccs2)[nH]1 [SX-D3]
3.69

###

target: human 5-HT6 receptor (Homo sapiens); construct: expressed in transfected cells; experiment: GPCR radioligand binding assay, [3H]-LSD displacement, HEK293 membranes; conditions: 10 µM
Strictly below 40% in 5-HT6 % Inhibition by plate position: 1 (yes). Otherwise: 0 (no).

COMPOUND: Fc1ccc2c(C3CCNCC3)c[nH]c2c1 [H4]
ASSIGNED CATEGORY: 0 (no)
--
COMPOUND: Nc1ccc(SC(F)F)cc1 [D1]
ASSIGNED CATEGORY: 0 (no)
--
COMPOUND: c1ccc2c(N3CCNCC3)ccnc2c1 [C4]
ASSIGNED CATEGORY: 0 (no)
--
COMPOUND: CC1C(=O)NC(=O)N1c1ccc(Cl)cc1 (stereo not drawn) [E3]
ASSIGNED CATEGORY: 0 (no)
--
COMPOUND: NC(c1ccccc1)c1ccccc1 [C3]
ASSIGNED CATEGORY: 1 (yes)
--
COMPOUND: O=C1CCN(c2ccccn2)CC1 [G8]
ASSIGNED CATEGORY: 1 (yes)

Please check: 5-HT6 % Inhibition by plate position for Cn1c(CO)nc2ccccc21 [G2] , strictly under 40% or not?
1 (yes)

Please check: 5-HT6 % Inhibition by plate position for N#CC1CCS(=O)(=O)C1 (stereo not drawn) [F2] , strictly under 40% or not?
1 (yes)

Please check: 5-HT6 % Inhibition by plate position for c1ccc2sc(N3CCNCC3)nc2c1 [G5] , strictly under 40% or not?
0 (no)

Please check: 5-HT6 % Inhibition by plate position for N#Cc1ccc2ncsc2c1 [C12] , strictly under 40% or not?
1 (yes)

Please check: 5-HT6 % Inhibition by plate position for Cc1ccc(-c2ccc(O)cc2)cc1 [D7] , strictly under 40% or not?
0 (no)

Please check: 5-HT6 % Inhibition by plate position for O=C1CC(CSc2ccc(Cl)cc2)=NN1 [H8] , strictly under 40% or not?
1 (yes)

Please check: 5-HT6 % Inhibition by plate position for Cc1cc(C)c2c(=O)[nH]n(C)c2n1 [F12] , strictly under 40% or not?
1 (yes)

Please check: 5-HT6 % Inhibition by plate position for c1ccc2oc(C3CCCNC3)nc2c1 (stereo not drawn) [D10] , strictly under 40% or not?
1 (yes)

###

target: human 5-HT6 receptor (Homo sapiens, UniProt P50406); construct: expressed in transfected cells; experiment: GPCR radioligand binding assay, [3H]-LSD displacement, HEK293 membranes; conditions: 5-HT6; replicate exp_2; read-out: %inh 5-HT6 exp_2
Sequence (P50406 whole entry): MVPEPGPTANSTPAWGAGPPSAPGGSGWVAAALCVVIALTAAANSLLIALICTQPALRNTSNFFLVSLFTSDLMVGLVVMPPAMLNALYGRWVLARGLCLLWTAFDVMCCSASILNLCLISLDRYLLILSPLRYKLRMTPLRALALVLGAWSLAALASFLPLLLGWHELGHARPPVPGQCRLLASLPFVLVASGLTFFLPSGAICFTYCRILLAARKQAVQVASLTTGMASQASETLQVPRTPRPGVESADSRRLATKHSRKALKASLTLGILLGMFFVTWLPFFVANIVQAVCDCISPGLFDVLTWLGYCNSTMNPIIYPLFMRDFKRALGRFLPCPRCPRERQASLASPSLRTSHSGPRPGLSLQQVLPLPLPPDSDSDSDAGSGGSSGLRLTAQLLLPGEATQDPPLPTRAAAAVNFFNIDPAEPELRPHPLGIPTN
Records here are stratified by inhibition at 10 µM; strata: Low (below 30%), Medium (30% to below 40%), High (40% or more)

Examples from the recorded data:
COMPOUND: Cn1c(N)nc2ccccc21 [A6]
ASSIGNED CATEGORY: Low
//
COMPOUND: Nc1nnc(-c2cccs2)[nH]1 [D3]
ASSIGNED CATEGORY: High
//
COMPOUND: O=C(c1ccccc1F)N1CCNCC1 [E12]
ASSIGNED CATEGORY: Low
//
COMPOUND: Cc1cc2ccccc2nc1N [SX001]
ASSIGNED CATEGORY: Medium

Please let me know in which category the item O=C(O)c1cnc(-c2ccccc2)s1 [F3] belongs.
Medium

Please let me know in which category the item Oc1ccccc1N1CCCCC1 [A12] belongs.
High

Please let me know in which category the item c1ccc(Nc2nncs2)cc1 [D8] belongs.
Low

Please let me know in which category the item NC(=O)N1CCC(C(=O)O)CC1 [SX048] belongs.
Medium

Please let me know in which category the item CS(=O)(=O)Nc1ccc(C(=O)O)cc1 [SX084] belongs.
Medium

Please let me know in which category the item O=C(O)C1CCN(c2ncccn2)CC1 [E9] belongs.
Low

Please let me know in which category the item c1cnc2cccnc2c1 [SX002] belongs.
Low

###

target: human thrombin (Homo sapiens, UniProt P00734); construct: human thrombin; purchased Sigma-Aldrich; experiment: Protease inhibitory assay, chromogenic substrate S-2238; type: biochemical; settings: Thrombin primary screening; substrate 40 µM; cmpd conc 500 µM
METRIC NAME: V0 / Vi
Give your answer as a number; write no unit.

COMPOUND: CS(=O)(=O)c1ccc(OC(F)(F)F)cc1
MEASURED TARGET: human thrombin (Homo sapiens, UniProt P00734)
V0 / Vi: 0.99
--
COMPOUND: Cc1cc(C)c2c(=O)[nH]n(C)c2n1
MEASURED TARGET: human thrombin (Homo sapiens, UniProt P00734)
V0 / Vi: 0.97

Please supply the value of reported V0 / Vi for the item CS(=O)(=O)Nc1ccc(C(=O)O)cc1
1.06

Please supply the value of reported V0 / Vi for the item Fc1ccc(CC2CCCNC2)cc1 (stereo not shown)
0.97

Please supply the value of reported V0 / Vi for the item Cc1ccc(C)n1Cc1ccccc1Cl
1.24

Please supply the value of reported V0 / Vi for the item COc1cccc(NC2=NCCCCC2)c1
0.88

Please supply the value of reported V0 / Vi for the item Nc1ccc(SC(F)F)cc1 [SX-D1]
1.00

Please supply the value of reported V0 / Vi for the item Nc1nnc(-c2cccs2)[nH]1
1.08

Please supply the value of reported V0 / Vi for the item N[C@H]1c2ccccc2C[C@H]1CO
0.98

Please supply the value of reported V0 / Vi for the item c1cnc2ncccc2c1
1.00

Please supply the value of reported V0 / Vi for the item O=C(c1ccncc1)N1CCNCC1 [SX-E2]
0.93

Please supply the value of reported V0 / Vi for the item O=C(O)c1cccc(Nc2ncccn2)c1
1.09

Please supply the value of reported V0 / Vi for the item O=c1ccc2c([nH]1)CCCC2
1.00

###

Some compounds, each annotated with its measured experimental hit status, 5-HT1.
molecular target: human 5-HT1A receptor (Homo sapiens); construct: expressed in transfected cells; test: GPCR radioligand binding assay, [3H]-8-OH-DPAT displacement, HEK293 membranes; details: 1 = hit, 0 = no hit; tested at 10 µM, hit = 50% or stronger inhibition
Sequence (P08908 whole entry): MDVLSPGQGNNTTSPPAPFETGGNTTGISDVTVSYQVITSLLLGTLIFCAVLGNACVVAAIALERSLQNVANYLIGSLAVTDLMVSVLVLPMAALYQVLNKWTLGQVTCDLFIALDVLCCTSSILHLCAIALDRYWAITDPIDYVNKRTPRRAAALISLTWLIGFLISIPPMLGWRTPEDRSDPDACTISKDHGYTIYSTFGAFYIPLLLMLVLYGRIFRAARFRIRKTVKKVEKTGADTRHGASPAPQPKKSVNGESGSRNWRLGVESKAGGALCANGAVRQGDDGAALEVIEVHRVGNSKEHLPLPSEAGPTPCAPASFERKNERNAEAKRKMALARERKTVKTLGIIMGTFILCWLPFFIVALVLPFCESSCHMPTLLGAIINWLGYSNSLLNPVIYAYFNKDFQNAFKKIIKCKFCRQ
Give your answer as a number; write no unit.

Example cases with answers are listed next.
SMILES: c1cnc2ncccc2c1
METRIC NAME: experimental hit status, 5-HT1
TEST RESULT: 0

SMILES: Nc1nnc2ccccn12
METRIC NAME: experimental hit status, 5-HT1
TEST RESULT: 0

SMILES: Cc1cc2ccccc2nc1N
METRIC NAME: experimental hit status, 5-HT1
TEST RESULT: 0

SMILES: c1cnc2cccnc2c1
METRIC NAME: experimental hit status, 5-HT1
TEST RESULT: 0

Attention now shifts to the item below.
Please supply the value of reported experimental hit status, 5-HT1 for the item c1ccc2[nH]ccc2c1
0
